Origin of the recorded values: ChEMBL document CHEMBL3865791

- assay-protocol: Antiproliferative activity against human CaEs17 cells after 72 hrs by MTT assay
- Type: functional, cell-based
- assay-setup: CaEs17, 72 h
recorded-endpoint: pEC50
Note on units: pEC50 is unitless, being -log10 of a concentration expressed in mol/L.

Exercise: For the molecule C=C1C(=O)[C@@]23C(=O)O[C@H]4CCC(C)(C)[C@H]5C(=O)OC[C@@]45[C@@H]2CC[C@@H]1[C@H]3OC(=O)c1cccnc1 , what pEC50 is on record?
Key: 5.45

Exercise: For the molecule C=C1C(=O)[C@]23[C@H](O)[C@H]1CC[C@H]2[C@@]12CO[C@]3(O)[C@@H](O)[C@@H]1C(C)(C)CC[C@@H]2O , what pEC50 is on record?
Key: 4.96

Exercise: For the molecule C=C1C(=O)[C@@]23C(=O)O[C@H]4CCC(C)(C)[C@H]5C(=O)OC[C@@]45[C@@H]2CC[C@@H]1[C@H]3OC(C)=O , what pEC50 is on record?
Key: 6.16

Exercise: For the molecule C=C1C(=O)[C@@]23C(=O)O[C@H]4CCC(C)(C)[C@H]5C(=O)OC[C@@]45[C@@H]2CC[C@@H]1[C@H]3OC(=O)c1ccc(Cl)cc1 , what pEC50 is on record?
Key: 6.47

Exercise: For the molecule C=C1C(=O)[C@@]23C(=O)O[C@H]4CCC(C)(C)[C@H]5[C@H](O)OC[C@@]45[C@@H]2CC[C@@H]1[C@H]3OC(C)=O , what pEC50 is on record?
Key: 5.80

Exercise: For the molecule C=C1C(=O)[C@@]23C(=O)O[C@H]4CCC(C)(C)[C@H]5C(=O)OC[C@@]45[C@@H]2CC[C@@H]1[C@H]3OC(=O)c1ccc(C)cc1 , what pEC50 is on record?
Key: 5.75

Exercise: For the molecule C=C1C(=O)[C@@]23C(=O)O[C@H]4CCC(C)(C)[C@H]5[C@H](O)OC[C@@]45[C@@H]2CC[C@@H]1[C@H]3OC(=O)c1ccccc1Cl , what pEC50 is on record?
Key: 6.22

Exercise: For the molecule C=C1C(=O)[C@@]23C(=O)O[C@H]4CCC(C)(C)[C@H]5C(=O)OC[C@@]45[C@@H]2CC[C@@H]1[C@H]3OC(=O)c1ccccc1 , what pEC50 is on record?
Key: 6.09
